Reported values of Herbicidal effect Xs for individual entries
Test system: cocklebur (Xanthium strumarium L.), Xs
experiment notes: Test Example 4: herbicidal effect on upland weeds after emergence
Type: in vivo
condition summary: dosage 5 kg/ha; sprayed after emergence; judged 14 days after treatment

record smiles: CCCNC(=O)c1nc2c(ccn2C)cc1C(=O)Nc1c(CC)ccc(Cl)c1CC
Herbicidal effect Xs: 5 (Weed-killing rate is 100%.)

record smiles: CCCNC(=O)c1nc2c(cc1C(=O)Nc1c(CC)ccc(Cl)c1CC)CCCS2
Herbicidal effect Xs: 5 (Weed-killing rate is 100%.)

record smiles: CCCNC(=O)c1nc2ccoc2cc1C(=O)Nc1c(CC)ccc(Cl)c1CC
Herbicidal effect Xs: 5 (Weed-killing rate is 100%.)

record smiles: CCCNC(=O)c1nc2ncccc2cc1C(=O)Nc1c(CC)ccc(Cl)c1CC
Herbicidal effect Xs: 5 (Weed-killing rate is 100%.)

record smiles: CCCNC(=O)c1nc2cc(OC)c(OC)cc2cc1C(=O)Nc1c(CC)ccc(Cl)c1CC
Herbicidal effect Xs: 2 (Weed-killing rate is 40-69%.)

record smiles: CCCNC(=O)c1cc2c(nc1C(=O)Nc1c(CC)ccc(Cl)c1CC)S(=O)(=O)CC2
Herbicidal effect Xs: 5 (Weed-killing rate is 100%.)

record smiles: CCCNC(=O)c1nc2ncn(C)c2cc1C(=O)Nc1c(CC)ccc(Cl)c1CC
Herbicidal effect Xs: 5 (Weed-killing rate is 100%.)

record smiles: CCCNC(=O)c1nc2c(cc1C(=O)Nc1cccc(Cl)c1C)CCOC2
Herbicidal effect Xs: 4 (Weed-killing rate is 90-99%.)

record smiles: CCCNC(=O)c1nc2c(C)nn(C)c2cc1C(=O)Nc1c(CC)ccc(Cl)c1CC
Herbicidal effect Xs: 5 (Weed-killing rate is 100%.)

record smiles: CCCNC(=O)c1nc2ccc(O)cc2cc1C(=O)Nc1c(CC)ccc(Cl)c1CC
Herbicidal effect Xs: 4 (Weed-killing rate is 90-99%.)

record smiles: CCCNC(=O)c1nc2ccsc2cc1C(=O)Nc1c(CC)ccc(Cl)c1CC
Herbicidal effect Xs: 5 (Weed-killing rate is 100%.)

record smiles: Cc1c(Cl)cccc1NC(=O)c1cc2c(nc1C(=O)NCC(C)C)OCCC2
Herbicidal effect Xs: 4 (Weed-killing rate is 90-99%.)

record smiles: CCCNC(=O)c1nc2c(cc1C(=O)Nc1c(CC)ccc(Cl)c1CC)CCOC2
Herbicidal effect Xs: 5 (Weed-killing rate is 100%.)

record smiles: CCCNC(=O)c1nc2c(cc1C(=O)Nc1c(CC)ccc(Cl)c1CC)CCSC2
Herbicidal effect Xs: 5 (Weed-killing rate is 100%.)

record smiles: CCc1ccc(Cl)c(CC)c1NC(=O)c1cc2cc3c(cc2nc1C(=O)NC1CCCC1)OCO3
Herbicidal effect Xs: 2 (Weed-killing rate is 40-69%.)

record smiles: CCNC(=O)c1nc2c(cnn2C)cc1C(=O)Nc1c(CC)ccc(Cl)c1CC
Herbicidal effect Xs: 5 (Weed-killing rate is 100%.)

record smiles: CCCNC(=O)c1nc2c(cc1C(=O)Nc1c(CC)ccc(Cl)c1CC)CCO2
Herbicidal effect Xs: 5 (Weed-killing rate is 100%.)

record smiles: CCCNC(=O)c1nc2ccn(OC)c2cc1C(=O)Nc1c(CC)ccc(Cl)c1CC
Herbicidal effect Xs: 5 (Weed-killing rate is 100%.)

record smiles: CCCNC(=O)c1nc2ocnc2cc1C(=O)Nc1c(CC)ccc(Cl)c1CC
Herbicidal effect Xs: 5 (Weed-killing rate is 100%.)

record smiles: CCCNC(=O)c1nc2onc(C)c2cc1C(=O)Nc1c(CC)ccc(Cl)c1CC
Herbicidal effect Xs: 5 (Weed-killing rate is 100%.)

record smiles: CCCNC(=O)c1nc2c(cnn2C)cc1C(=O)Nc1c(CC)ccc(Cl)c1CC
Herbicidal effect Xs: 5 (Weed-killing rate is 100%.)

record smiles: CCc1ccc(Cl)c(CC)c1NC(=O)c1cc2c(nc1C(=O)NC1CCCC1)OCCC2
Herbicidal effect Xs: 5 (Weed-killing rate is 100%.)

record smiles: CCCNC(=O)c1nc2c(cc1C(=O)Nc1c(CC)ccc(Cl)c1CC)CSCC2
Herbicidal effect Xs: 5 (Weed-killing rate is 100%.)

record smiles: CCCNC(=O)c1nc2cnn(C)c2cc1C(=O)Nc1c(CC)ccc(Cl)c1CC
Herbicidal effect Xs: 5 (Weed-killing rate is 100%.)

record smiles: CCNC(=O)c1nc2ccsc2cc1C(=O)Nc1c(CC)ccc(Cl)c1CC
Herbicidal effect Xs: 5 (Weed-killing rate is 100%.)

record smiles: CCCNC(=O)c1nc2ccccc2cc1C(=O)Nc1c(CC)ccc(Cl)c1CC
Herbicidal effect Xs: 5 (Weed-killing rate is 100%.)

record smiles: CCNC(=O)c1nc2ccc(O)cc2cc1C(=O)Nc1c(CC)ccc(Cl)c1CC
Herbicidal effect Xs: 3 (Weed-killing rate is 70-89%.)

record smiles: CCc1ccc(Cl)c(CC)c1NC(=O)c1cc2ccccc2nc1C(=O)NC
Herbicidal effect Xs: 5 (Weed-killing rate is 100%.)

record smiles: CCNC(=O)c1nc2ccc(OC)cc2cc1C(=O)Nc1c(CC)ccc(Cl)c1CC
Herbicidal effect Xs: 3 (Weed-killing rate is 70-89%.)

record smiles: CCCNC(=O)c1nc2c(cc1C(=O)Nc1c(CC)ccc(Cl)c1CC)c(C)nn2C
Herbicidal effect Xs: 5 (Weed-killing rate is 100%.)

record smiles: CCCNC(=O)c1nc2ccn(C)c2cc1C(=O)Nc1c(CC)ccc(Cl)c1CC
Herbicidal effect Xs: 5 (Weed-killing rate is 100%.)

record smiles: CCCNC(=O)c1nc2sccc2cc1C(=O)Nc1c(CC)ccc(Cl)c1CC
Herbicidal effect Xs: 5 (Weed-killing rate is 100%.)

record smiles: CCc1ccc(Cl)c(CC)c1NC(=O)c1cc2cc3c(cc2nc1C(=O)NCC(C)C)OCO3
Herbicidal effect Xs: 2 (Weed-killing rate is 40-69%.)

record smiles: CCNC(=O)c1nc2ncccc2cc1C(=O)Nc1c(CC)ccc(Cl)c1CC
Herbicidal effect Xs: 5 (Weed-killing rate is 100%.)

Data provenance is patent US6444617B1.
